# Test system: CCRIS mutagenicity, Ames/micronucleus/aberration tests
# assay_text: CCRIS mutagenicity studies
# test_parameters: Test System: AMES SALMONELLA TYPHIMURIUM; Strain/Indicator: TA1977; Metabolic Activation: NONE; Method: PREINCUBATION
Activity calls are given as the source filed them. The rule behind the calls is not given here.
Write down the outcome that applies. Available outcomes: active, inactive

Query: State the result this test recorded for "Nc1ccc2nc3ccccc3cc2c1" .
Response: inactive

Query: State the result this test recorded for "C[n+]1c2cc(N)ccc2cc2ccc(N)cc21" .
Response: active

Query: State the result this test recorded for "Nc1cccc2nc3ccccc3c(N)c12" .
Response: active

Query: State the result this test recorded for "Nc1ccc2cc3ccc(N)cc3nc2c1" .
Response: active
